The measurements presented in this section are drawn from ChEMBL document CHEMBL1133639.

target: Glutamate receptor ionotropic, NMDA 1 (Homo sapiens, UniProt Q05586); assay: Concentration required for 50% Inhibition of responses at cloned NR1A/2AB NMDA expressed in Xenopus oocytes
MEASURED PROPERTY: IC50 (nM)

Worked cases, answers included:
Oc1nc2ccc(C#CCN3CCC(Cc4ccccc4)CC3)cc2o1 : 49
O=C1COc2cc(C#CCCN3CCC(Cc4ccccc4)CC3)ccc2N1 : 1100

A = Cn1c(=O)[nH]c2cc(C#CCN3CCC(Cc4ccccc4)CC3)ccc21
B = Oc1nc2cc(C#CCN3CCC(Cc4cccc(F)c4)CC3)ccc2[nH]1
Request: Which of the two gives a bigger number for IC50: A or B ? Identify your pick by its label.
Result: A
(A: 62000 nM, B: 6.1 nM)

P = Cc1ccc(CC2CCN(CC#Cc3ccc4[nH]c(O)nc4c3)CC2)cc1
Q = O=c1[nH]c2ccc(C#CCCN3CCC(Cc4ccccc4)CC3)cc2o1
Request: Which of the two items, P and Q , has the greater recorded IC50? Select an item and report its label.
Result: Q
(Q: 120 nM, P: 17 nM)

P = S=c1[nH]c2ccc(C#CCN3CCC(Cc4ccccc4)CC3)cc2[nH]1
Q = C(#Cc1ccc2nn[nH]c2c1)CCN1CCC(Cc2ccccc2)CC1
R = O=C1Cc2cc(C#CCCN3CCC(Cc4ccccc4)CC3)ccc2N1
Request: // ascending sort on recorded IC50 Reply: labels, ordered per the request.
Result: P, Q, R
(P: 16 nM, Q: 220 nM, R: 320 nM)
